# EXPERIMENTAL SYSTEM: c-kit autophosphorylation (Phospho c-Kit Tyr721) in HMC 1.1 (exon 11/13) cells, V654A (Homo sapiens, UniProt P10721, V560G/V654A)
# Construct: endogenous in cells
# Sequence (P10721 26-976 V560G/V654A): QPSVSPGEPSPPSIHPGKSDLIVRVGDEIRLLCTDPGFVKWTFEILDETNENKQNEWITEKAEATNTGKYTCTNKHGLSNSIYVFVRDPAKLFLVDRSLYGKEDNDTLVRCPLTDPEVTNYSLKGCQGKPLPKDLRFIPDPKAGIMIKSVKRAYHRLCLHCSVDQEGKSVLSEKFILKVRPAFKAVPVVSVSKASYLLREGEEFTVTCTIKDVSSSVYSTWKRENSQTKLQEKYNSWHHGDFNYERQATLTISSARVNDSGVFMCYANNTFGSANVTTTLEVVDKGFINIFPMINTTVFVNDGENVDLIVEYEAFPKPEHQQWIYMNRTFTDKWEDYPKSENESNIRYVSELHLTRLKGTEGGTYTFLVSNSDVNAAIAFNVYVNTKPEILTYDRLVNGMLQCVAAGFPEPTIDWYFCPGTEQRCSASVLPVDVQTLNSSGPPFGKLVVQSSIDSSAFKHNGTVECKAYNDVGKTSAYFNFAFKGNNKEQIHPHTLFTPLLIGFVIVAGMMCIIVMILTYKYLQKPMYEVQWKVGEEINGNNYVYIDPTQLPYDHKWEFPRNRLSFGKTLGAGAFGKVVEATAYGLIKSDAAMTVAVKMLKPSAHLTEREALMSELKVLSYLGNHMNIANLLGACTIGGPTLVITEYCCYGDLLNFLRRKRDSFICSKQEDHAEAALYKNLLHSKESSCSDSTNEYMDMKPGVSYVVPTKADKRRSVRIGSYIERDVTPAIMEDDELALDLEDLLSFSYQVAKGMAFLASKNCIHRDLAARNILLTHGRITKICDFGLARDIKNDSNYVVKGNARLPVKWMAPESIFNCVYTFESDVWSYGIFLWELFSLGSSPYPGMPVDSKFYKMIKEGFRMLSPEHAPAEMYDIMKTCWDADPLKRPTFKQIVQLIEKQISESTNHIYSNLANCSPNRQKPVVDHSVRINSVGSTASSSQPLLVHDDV
# MEASUREMENT PROTOCOL: pKIT Meso Scale Discovery (MSD) assay, inhibition of autophosphorylation of KIT, HMC1.1_V654A
# CONDITION: Table 1, cell line not named for Table 1, b1056 names pKIT HMC1.1_V654A, read-out: Code (IC50 for inhibition of autophosphorylation of KIT, pKIT MSD assay)
We begin with a simple list: items and their reported IC50.
READOUT KIND: IC50

In [3]: df
Out[3]:
                                    compound  assay_value
 0  CN[C@H](C)Cn1cc(-c2cnc(Nc3cc(N)nc(C(F)F)n3)cc2OC(F)(F)F)cn1 (single isomer, unassigned) [Compound 196]      < 10 nM
 1  CCNC(=O)c1cnc(Nc2cc(N)nc(C(F)F)n2)cc1NC1CC1 [Compound 38]      < 10 nM
 2  CNc1cc(Nc2cc(N)nc(C(F)F)n2)ncc1C(=O)NC12CC(CO)(C1)C2 [Compound 121]  10 to 40 nM
 3  COc1cc(Nc2cc(N)nc(C(F)F)n2)ncc1-c1cnn(C(C)C)c1 [Compound 56]      < 10 nM
 4  CN[C@@H](C)Cn1cc(-c2cnc(Nc3cc(N)nc(C(F)F)n3)cc2OC(F)(F)F)cn1 (single isomer, unassigned) [Compound 195]      < 10 nM
 5  CNC(=O)c1cnc(Nc2cc(N)nc(CF)n2)cc1N[C@H]1CCOC1 [Compound 36]      > 40 nM
 6  CCNc1cc(Nc2cc(N)nc(C(F)F)n2)ncc1C(=O)NCc1ccccn1 [Compound 131]      < 10 nM
 7  N#CCNC(=O)c1cnc(Nc2cc(N)nc(C(F)F)n2)cc1NC1CC1 [Compound 54]  10 to 40 nM
 8  CCNc1cc(Nc2cc(N)nc([C@H](C)F)n2)ncc1C(=O)NC [Compound 11]      < 10 nM
 9  CN1CCC(n2cc(-c3cnc(Nc4cc(N)nc(C(F)F)n4)cc3OC(F)F)cn2)C1 (centres unmarked) [Compound 192]      < 10 nM
10  COc1cc(Nc2cc(N)nc(C(F)F)n2)ncc1-c1cnn([C@H]2CCOC2)c1 (single isomer, unassigned) [Compound 109]      < 10 nM
11  CNC(=O)c1cnc(Nc2cc(N)nc(C(F)F)n2)cc1NC1CCOC1 (centres unmarked) [Compound 64]  10 to 40 nM
12  Cn1cc(-c2cnc(Nc3cc(N)nc(C(F)F)n3)cc2OC(F)F)cn1 [Compound 69]  10 to 40 nM
13  CNC(=O)c1cnc(Nc2cc(N)nc([C@H](C)F)n2)cc1NC(C)C [Compound 21]      < 10 nM
14  CCCNC(=O)c1cnc(Nc2cc(N)nc(C(F)F)n2)cc1NC1CC1 [Compound 62]  10 to 40 nM
15  CC(C)Oc1cc(Nc2cc(N)nc(CF)n2)ncc1-c1cnn(C)c1 [Compound 33]      < 10 nM
16  Nc1cc(Nc2cc(OC3CC3)c(-c3cnn(CC4CCO4)c3)cn2)nc(C(F)F)n1 (centres unmarked) [Compound 166]      < 10 nM
